test-summary: basal RPMI8226 viability, no added stimulus, profiling panel, cell-based, calcein-AM fluorescence, 48 h, PK04 Diversity Set (AID 1166);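 also: cells grown under basal conditions without added stimulus; test concentration not given here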
details: RPMI8226 myeloma viability, higher = more signal
Below: a set of entries, each annotated with reported z-score.
Give your answer as a number; write no unit.

{"compound": "COc1ccc([Si](C)(C)[C@@H]2[C@@H](CC(=O)N3CCC[C@H]3CO)O[C@]3(C(=O)N(Cc4ccc(N5CCC5=O)cc4)c4ccccc43)[C@H]2C)cc1", "metric": "z-score", "observed-measurement": -4.39}
{"compound": "COCCCNC(=O)[C@@]1(Cc2ccccc2)N=C(c2ccc(OCCCO)cc2)O[C@H]1c1ccccc1N=[N+]=[N-]", "metric": "z-score", "observed-measurement": -4.02}
{"compound": "COc1ccc([Si](C)(C)[C@H]2[C@H](CC(=O)N(CCO)Cc3ccccc3)O[C@@]3(C(=O)N(Cc4ccc(N5CCC5=O)cc4)c4ccccc43)[C@@H]2C)cc1", "metric": "z-score", "observed-measurement": -3.56}
{"compound": "NCCCCCCNC(=O)[C@@H]1C[C@@H]2C(=O)N[C@@H](Cc3ccccc3)C(=O)N2[C@@H]1c1ccc(O)cc1", "metric": "z-score", "observed-measurement": -0.141}
{"compound": "O=c1n(-c2ccccc2)c(=O)n2n1CC(COc1ccccc1)=C1[C@@H](CCc3ccccc3)OB(O)C[C@@H]12", "metric": "z-score", "observed-measurement": -0.364}

// query Check the records and state z-score for CC(C)(C)OC(=O)CC[C@]1(C(=O)NCc2ccccc2)N=C(c2ccc(OCCCO)cc2)O[C@H]1c1ccccc1N=[N+]=[N-]
// result -1.52

// query Check the records and state z-score for CC(C)NC(=O)[C@@H]1c2ccccc2C(=O)N(Cc2cc(F)cc(C(F)(F)F)c2)[C@H]1c1ccc(CO)cc1
// result 0.252

// query Check the records and state z-score for CC(C)N1CC=CC23O[C@@H]4/C=C\CCCOC(=O)C4[C@H]2C(=O)N(CCCO)[C@@H]3C1=O (some centres not stated)
// result 0.311

// query Check the records and state z-score for Cc1ccc(S[C@]2(C(=O)NCC(C)C)CC(=O)N(C(C)C)[C@@H]2c2ccc(CO)cc2)cc1
// result -0.954

// query Check the records and state z-score for COc1ccc(CCNC(=O)[C@@]2(Sc3ccc(C)cc3)CC(=O)N(Cc3ccccc3)[C@@H]2c2ccc(CO)cc2I)cc1
// result -2.05

// query Check the records and state z-score for CN1C=C(C(=O)OCCS(C)(=O)=O)C(C(=O)OCCS(C)(=O)=O)=CC(CCCO)=CC1c1cccs1 (configuration not stated)
// result -0.249

// query Check the records and state z-score for COCCOC(=O)N1C(=O)[C@@]2(c3ccccc31)[C@H](C(=O)Nc1nc3ccccc3s1)[C@H]1C(=O)O[C@H](c3ccccc3)[C@H](c3ccccc3)N1[C@@H]2c1ccc(O)cc1
// result -3.76

###

test-summary: S. cerevisiae RM11-1a growth modifiers, primary screen, strain RM11-1a, OD600, basal, 24 h (AID 1177);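 also: cultures grown under basal conditions with no added stressor; test concentration not given here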
details: OD600, 24 h, higher = more signal, called active from +8 up or from −8 down
Binary call on z-score: MET from 0.1 upward, NOT MET beneath that.

{"compound": "CCOC(=O)C[C@H]1[C@H](OC(=O)c2ccc(-c3ccccc3)cc2)[C@@H](NC(=O)c2ccccc2)c2cc(OCCCO)ccc2N1C(=O)c1ccccc1", "class-name": "NOT MET"}
{"compound": "[N-]=[N+]=NCc1ccccc1C[C@@]1(C(=O)O)N=C(c2ccc(OCCCO)cc2)O[C@@H]1c1ccccc1", "class-name": "NOT MET"}
{"compound": "[N-]=[N+]=NCc1ccccc1C[C@]1(C(=O)NCc2ccccc2)N=C(c2ccc(OCCCO)cc2)O[C@H]1c1ccccc1", "class-name": "MET"}

// query Item CO[C@H]1O[C@H](CO)[C@@H](OC(=O)Nc2ccccc2)[C@H](OC(=O)Nc2ccccc2-c2ccccc2)[C@H]1OC(=O)Nc1ccccc1-c1ccccc1 with z-score of 0.1 or above?
// result MET

// query Item CC(C)(C)OC(=O)CC[C@]1(C(=O)NCc2ccccc2)N=C(c2ccc(OCCCO)cc2)O[C@H]1c1ccccc1N=[N+]=[N-] with z-score of 0.1 or above?
// result MET

// query Item C#CCN1C(C(=O)OCC)OC[C@H]1c1ccccc1 (some centres undefined) with z-score of 0.1 or above?
// result NOT MET

// query Item COc1ccc(C#Cc2ccc3c(c2)[C@]2(C(=O)N3)[C@H](c3ccc(O)cc3)N3[C@H](c4ccccc4)[C@H](c4ccccc4)OC(=O)[C@H]3[C@@H]2C(=O)N2CCN(c3ncccn3)CC2)cc1 with z-score of 0.1 or above?
// result MET

// query Item COCCOC(=O)N1C(=O)[C@@]2(c3cc(C#CCCO)ccc31)[C@H](c1ccccc1OCCO)N1[C@H](c3ccccc3)[C@H](c3ccccc3)OC(=O)[C@H]1[C@@H]2C(=O)NC[C@H](O)c1ccccc1 with z-score of 0.1 or above?
// result NOT MET

// query Item C[N+](C)(C)CCCC[C@@H]1NC(=O)[C@H]2C[C@@H](C(=O)NCCCCCN)[C@@H](c3cccc(OCCO)c3)N2C1=O with z-score of 0.1 or above?
// result NOT MET

// query Item CCCCCN1CC=CC23O[C@@H]4/C=C\CCC(C)OC(=O)C4[C@H]2C(=O)N(CCO)[C@@H]3C1=O (some centres undefined) with z-score of 0.1 or above?
// result MET

// query Item C=C(COC)/C(=C/C[C@H](OC(C)=O)c1cccc(OCCO)c1)c1cc(C(=O)OC)ccc1OC with z-score of 0.1 or above?
// result NOT MET

// query Item COCCOC(=O)N1C(=O)[C@@]2(c3cc(C#CC4(O)CCCCCC4)ccc31)[C@H](C(=O)NC[C@H](O)c1ccccc1)[C@H]1C(=O)O[C@H](c3ccccc3)[C@H](c3ccccc3)N1[C@@H]2c1ccccc1OCCO with z-score of 0.1 or above?
// result MET

// query Item CN(C)CCCC[C@@H]1NC(=O)[C@@H]2C[C@H](C(=O)NCCCCCNC(=O)CS)[C@H](c3cccc(OCCO)c3)N2C1=O with z-score of 0.1 or above?
// result NOT MET

// query Item COC(=O)C(CC#Cc1ccc2c(c1)[C@]1(C(=O)N2)[C@H](c2ccccc2OCCO)N2[C@H](c3ccccc3)[C@H](c3ccccc3)OC(=O)[C@H]2[C@@H]1C(=O)N1CCCCCCC1)C(=O)OC with z-score of 0.1 or above?
// result MET

###

test-target: Torsin-1A (Homo sapiens)
test-summary: small-molecule binders of mutant TOR1A in lysate, primary screen, cell lysate, small-molecule microarray, COS7 lysate, 635/667 nm fluorescence (AID 1150);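 also: score pools 667 nm emission and signal to noise measuring lysate protein binding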
details: COS7 hTOR1A mutant lysate, 635 nm fluorescence, higher = more signal
Classes (composite z-score): zone 1 (below 0.4), zone 2 (0.4 to below 0.9), zone 3 (0.9 or more)

{"molecule": "CC(C)(C)OC(=O)CC[C@@]1(C(=O)N2CCOCC2)N=C(c2ccc(OCCCO)cc2)O[C@@H]1c1ccccc1", "class-name": "zone 3"}
{"molecule": "COC(=O)C1=CC(CCCO)=CC(C2CC2)N(Cc2cc3c(cc2Br)OCO3)C=C1C(=O)OC (centres undefined)", "class-name": "zone 3"}
{"molecule": "COC(=O)c1c(CC[C@@H](CO)NC(=O)Nc2ccc(OC)cc2)oc(C(=O)Cc2ccccc2)c1C(=O)OC", "class-name": "zone 3"}
{"molecule": "O=C(NCC(F)(F)F)[C@@H]1c2ccccc2C(=O)N(C2Cc3ccccc3C2)[C@H]1c1ccc(CO)cc1", "class-name": "zone 1"}

// query Sort into band: CC(C)C[C@@H]1NC(=O)[C@@]23C(=O)N[C@@H](Cc4ccccc4)C2[C@H](C)[C@@]2(C)O[C@H]2C3/C=C/C/C=C\CNC(=O)[C@H](Cc2ccccc2)NC1=O (some centres undefined)
// result zone 1

// query Sort into band: CCOC(=O)C[C@H]1[C@H](OC(=O)c2ccc(C(=O)c3ccccc3)cc2)[C@@H](NC(=O)Cc2ccc(OC)cc2)c2cc(OCCCO)ccc2N1C(=O)Cc1ccc(OC)cc1
// result zone 2

// query Sort into band: COC(=O)C(CC#Cc1ccc2c(c1)[C@]1(C(=O)N2)[C@H](C(N)=O)[C@H]2C(=O)O[C@H](c3ccccc3)[C@H](c3ccccc3)N2[C@@H]1c1ccc(O)cc1)C(=O)OC
// result zone 2

// query Sort into band: COc1ccc(/C=C/C(=O)c2cccc(OCC(=O)OC(C)(C)C)c2)cc1
// result zone 1

// query Sort into band: C=C(/C(=C/C[C@H](OC(=O)c1ccncc1)c1cccc(OCCO)c1)c1cc(C(=O)OC)ccc1OC)C(C)C
// result zone 2

Taken from PubChem BioAssay.
